Assay: Pharmacokinetics in plasma and CSF after i.n. or s.c. administration of 5-MeO-DMT formulations
Details: Sprague-Dawley, rat, plasma, iv, 1 mg/kg
measurement_label: AUC(0-inf) (ng·h/mL)
Answers are plain numbers, in ng·h/mL.

For the molecule COc1ccc2[nH]cc(CCN(C)C)c2c1 [Compound 5-MeO-DMT, 5-methoxy-N,N-dimethyltryptamine] , what AUC(0-inf) is on record?
35.3
